- System: MDA468 cells
- TEST_METHOD_NOTES: In vitro cell growth assay (MTS), MDA468
- Assay type: cell-based, human
- SETUP_CONDITIONS: 72 h; MDA468 human tumor line, 3 days treatment, MTS; * = compounds 4 and 5 screened as a mixture; read-out: MDA 468 IC50
Criterion: IC50 strictly under 700 nM. Met: yes (1). Not met: no (0).

Would you please look over these solved cases?
CCC(=O)Nc1cc(N)c2c3c(cc(C(=O)CCO)nc13)C=N2 = yes (1)
CCCC(=O)Nc1cc(N)c2c3c(cc(C(=O)CCO)nc13)C=N2 = no (0)
CCC(=O)Nc1cc(N)c2c3c(cc(C(=O)/C=C/OC)nc13)C=N2 = yes (1)
CC(C)C(=O)Nc1cc(N)c2c3c(cc(C(=O)CCO)nc13)C=N2 = no (0)
CO/C=C/C(=O)c1cc2c3c(c(N)cc(NC(=O)C(C)C)c3n1)N=C2 = yes (1)

Turning now to a further compound:
Asked: Strictly below 700 nM in IC50? CC(C)CC(=O)Nc1cc(N)c2c3c(cc(C(=O)CCO)nc13)C=N2
Given back: no (0)
